Cited source: the Deep4Chem optical property database

Listed here are compounds together with their documented absorption maximum.
# Assay summary: solvent given as SMILES
# Cond: in CC#N
Hi! Could you send only the number? It should be in nm, unit omitted.

Worked examples, 3 compounds total:
Returns the measured absorption maximum for the input compound. Input: Cc1cc(C)c2nc3c(=O)n(C)c(=O)nc-3n(C)c2c1
446

Consider next the compound CC(=O)O[B-]1(OC(C)=O)OC(/C=C/C=C/c2ccccc2)=CC(/C=C/C=C/c2ccccc2)=[O+]1 in the same way.
472

Consider next the compound O=c1oc2c(ccc3ccccc32)nc1-c1ccccc1 in the same way.
396

***
Returns the measured absorption maximum for the input compound. Input: COC(=O)c1cc(=O)n(C)c2cc(-c3ccc4c(c3)OCO4)sc12
400

Consider next the compound CC1=N/C(=C\c2ccccc2N)C(=O)N1C in the same way.
422

Consider next the compound COC1=[N+]2C(=C(c3ccccc3)c3ccc(OC)n3[B-]2(F)F)C=C1SC#N in the same way.
504

Consider next the compound CN(C)c1ccc(/C=C2/N=C(c3ccccc3)OC2=O)cc1 in the same way.
473

Consider next the compound CCN(CC)c1ccc2cc3c(cc2c1)C1(c2ccccc2Oc2ccccc21)c1cc2cc(N(CC)CC)ccc2cc1C3=O in the same way.
452

Consider next the compound CN(C)c1ccc(/C=C/C(=O)c2ccc(Cl)cc2)cc1 in the same way.
419

Consider next the compound CN(CCO)c1ccc(/C=C/C2=C(C#N)C(C(C#N)C#N)OC2(C)C)cc1 (stereo not drawn) in the same way.
586

Consider next the compound COc1ccc(C#Cc2ccc(C#N)cc2)cc1 in the same way.
324

* * *

Listed here are compounds together with their documented absorption maximum.
# Assay summary: solvent given as SMILES
# Cond: in CCOC(C)=O
Hi! Could you send only the number? It should be in nm, unit omitted.

Returns the measured absorption maximum for the input compound. Input: Cc1ccc(-n2c3ccccc3c3cc(C=C(C#N)C#N)ccc32)cc1
400

Consider next the compound CN(C)c1ccc(/C=C/C=C2\CCCC2=O)cc1 in the same way.
408

Consider next the compound c1cc2ccc3cccc4ccc(c1)c2c34 in the same way.
335

***
Returns the measured absorption maximum for the input compound. Input: CCCSc1ccc2n1[B-](F)(F)[N+]1=CC=CC1=C2c1ccccc1
534

Consider next the compound O=C(/C=C/c1cn(-c2ccccc2)nc1-c1ccccc1)c1c(O)c2ccccc2oc1=O in the same way.
402

Consider next the compound CC1=[N+]2C(=C(c3ccc4c(c3)Cc3ccccc3-4)c3ccc(C)n3[B-]2(F)F)C=C1c1cc2n(c1)[B-](F)(F)[N+]1=CC=CC1=C2c1c(C)cc(C)cc1C in the same way.
598.5

Consider next the compound CN(C)c1ccc(/C=C/C(=O)O)cc1 in the same way.
358

Consider next the compound NS(=O)(=O)c1ccc(N2N=C(c3ccc(O)cc3)CC2c2ccccc2)cc1 (stereo unspecified) in the same way.
357

Consider next the compound CSc1cc(-c2cc3cc4c5c(c3oc2=O)CCCN5CCC4)oc(=O)c1C#N in the same way.
527

Consider next the compound Nc1cc[nH]c(=S)n1 in the same way.
286

Consider next the compound COC(=O)C(Cc1ccc2oc(-c3ccc4c(c3)c3ccccc3n4-c3ccccc3)nc2c1)NC(=O)OC(C)(C)C (stereo unspecified) in the same way.
325.6

Consider next the compound CCn1c2ccsc2c2c3nsnc3c3c4sccc4n(CC)c3c21 in the same way.
433

Consider next the compound CCn1c2ccccc2c2cc(C#Cc3cc(C#Cc4ccc5c(c4)c4ccccc4n5CC)nc(SC)n3)ccc21 in the same way.
392

Consider next the compound CN(C)c1ccc(/C=C2\CCCC2=O)cc1 in the same way.
370

Consider next the compound CCN(CC)c1ccc2cc(-c3cc(SC)c(C#N)c(=O)o3)c(=O)oc2c1 in the same way.
509

Consider next the compound O=c1cc(COc2ccc(I)cc2)c2c(ccc3ccccc32)o1 in the same way.
348

Consider next the compound Cc1ccc(C2=C3C=c4c(oc5ccccc45)=[N+]3[B-](F)(F)n3c2cc2c4ccccc4oc23)cc1 in the same way.
579.5

Consider next the compound c1ccc(C2CCN3COc4c5ccccc5c5c6c7c(c2c3c46)C(c2ccccc2)CCN7CO5)cc1 (stereo unspecified) in the same way.
404

Consider next the compound CCC1=C(C)C2=C(C)c3cc(I)c(I)n3[B-](F)(F)[N+]2=C1C in the same way.
518.5

Consider next the compound CCN(CC)c1ccc(-c2nc3c(c4c2-c2ccccc2CC4)-c2ccccc2CC3)cc1 in the same way.
346

Consider next the compound CCCCCCCCC1(CCCCCCCC)c2cc(C#CC#Cc3ccc(N(c4ccccc4)c4ccccc4)cc3)ccc2-c2ccc(C=O)cc21 in the same way.
381

Consider next the compound COC1=[N+]2C(=C(c3ccccc3)c3ccc(OC)n3[B-]2(F)F)C=C1SC#N in the same way.
506

Consider next the compound CCN(CC)c1cccc2c1ccc1c(=O)oc(-c3ccc(C(F)(F)F)cc3)cc12 in the same way.
389

* * *

Listed here are compounds together with their documented absorption maximum.
# Assay summary: solvent given as SMILES
# Cond: in CC#N
Hi! Could you send only the number? It should be in nm, unit omitted.

Returns the measured absorption maximum for the input compound. Input: COc1ccc(C2=CC3=C(c4c(C)cc(C)cc4C)c4cc(-c5ccc(OC)cc5)c(-c5ccc(OC)cc5)n4[B-](F)(F)[N+]3=C2c2ccc(OC)cc2)cc1
608

Consider next the compound CC(=O)c1c2c(c(C(C)=O)c3c1OC(CC(=O)O)O3)OCO2 in the same way.
433

Consider next the compound COc1ccc(-c2nc(-c3ccc(-c4nc(-c5ccc(OC)cc5)c(-c5ccc(OC)cc5)[nH]4)s3)[nH]c2-c2ccc(OC)cc2)cc1 in the same way.
365

***
Returns the measured absorption maximum for the input compound. Input: N#Cc1ccc(N/N=C/c2ccc3ccccc3c2O)cc1
380

Consider next the compound CCC1=C(C)C2=Cc3c4ccccc4c4n3[B-](C)(Oc3ccccc3-4)[N+]2=C1C (centres undefined) in the same way.
616

Consider next the compound CCn1c2ccccc2c2cc(/C=C/c3cccc(/C=C/c4ccc5c(c4)c4ccccc4n5CC)[n+]3CCCS(=O)(=O)[O-])ccc21 in the same way.
454

Consider next the compound C(=C\c1cnc2ccccc2n1)/c1ccc(N2CCCCC2)cc1 in the same way.
410

Consider next the compound CC(=O)Nc1ccc2ccc3cccc4ccc1c2c34 in the same way.
339

Consider next the compound Cc1ccc(C2=[N+]3C(=Cc4ccc(C)n4[B-]3(F)F)c3ccccc32)[nH]1 in the same way.
592

* * *

Listed here are compounds together with their documented absorption maximum.
# Assay summary: solvent given as SMILES
# Cond: in ClCCl
Hi! Could you send only the number? It should be in nm, unit omitted.

Returns the measured absorption maximum for the input compound. Input: CC[B-]1(CC)c2cccc3c4c5c(cccc5c(c23)-c2cccc(C)[n+]21)[B-](CC)(CC)[n+]1c(C)cccc1-4
538

Consider next the compound CC(C)(C)NC(=O)c1ccc(Br)c2ccc3c4ccccc4c4ccccc4c3c12 in the same way.
343

Consider next the compound c1ccc(C2=C(c3ccccn3)[Si](c3ccccc3)(c3ccccc3)c3ccccc32)cc1 in the same way.
339

Consider next the compound CCCCC1=Cc2c3ccc4cccc5ccc(c6cc(-c7ccc(N(c8ccccc8)c8ccccc8)cc7)n(c26)P1(=O)c1ccccc1)c3c45 (stereo not drawn) in the same way.
431

Consider next the compound CCN(CC)c1ccc2cc(C#N)/c(=N\C(=O)c3ccco3)oc2c1 in the same way.
430

* * *

# Assay summary: solvent given as SMILES
# Cond: in Cc1ccccc1
Listed here are compounds together with their documented absorption maximum.
Hi! Could you send only the number? It should be in nm, unit omitted.

Worked examples, 6 compounds total:
Returns the measured absorption maximum for the input compound. Input: CCCCCCC(CCCCCC)N1C(=O)c2cccc3c(-c4ccc([Si](C)(C)C)cc4)ccc(c23)C1=O
353.4

Consider next the compound CC(C)(C)c1ccc(N(c2ccc(S(=O)(=O)c3ccc(S(=O)(=O)c4ccc(N(c5ccc(C(C)(C)C)cc5)c5ccccc5C(C)(C)C)cc4)cc3)cc2)c2ccccc2C(C)(C)C)cc1 in the same way.
351

Consider next the compound CCN(CC)c1ccc2cc(-c3cc(SC)c(C#N)c(=O)o3)c(=O)oc2c1 in the same way.
509

Consider next the compound Cc1ccc(C2=[N+]3C(=Cc4ccc(C)n4[B-]3(F)F)c3ccccc32)[nH]1 in the same way.
606

Consider next the compound CC(C)(C)c1ccc2c(c1)c1cc(C(C)(C)C)ccc1n2-c1ccc(-c2nc(-c3ccc(-n4c5ccc(C(C)(C)C)cc5c5cc(C(C)(C)C)ccc54)cc3)nc(-c3ccc(P(=O)(c4ccccc4)c4ccccc4)cc3)n2)cc1 in the same way.
393.2

Consider next the compound CC1(C)c2ccccc2N(c2ccc3c(c2)C(c2ccccc2)(c2ccccc2)c2cc(N4c5ccccc5C(C)(C)c5ccccc54)ccc2S3(=O)=O)c2ccccc21 in the same way.
364

***
Returns the measured absorption maximum for the input compound. Input: c1ccc(-c2nc(-c3ccccc3)nc(-c3ccc(-n4c5ccccc5c5cc6c(cc54)C(c4ccccc4)(c4ccccc4)c4ccccc4-6)cc3)n2)cc1
366
